system: Key Grass and Sedge Weeds as well as Grass Crops; test: Post-emergent Test II herbicidal activity (Table 6); assay type: in vivo; settings: post-emergence, 336 h, ZEAMX: maize, corn (Zea mays), crop, 140 g ai/ha, read-out: Visual Growth Reduction (%) 14 Days After Application, ZEAMX
Endpoint: pest or weed control at 140 g/ha

Use the examples below as a reference point.
INSERT INTO results (line_notation, endpoint_value) VALUES
  ('COC(=O)c1nc(-c2ccc(C(F)(F)F)c(F)c2F)nc(N)c1OC', '95 to 100%'),
  ('COC(=O)c1nc(-c2ccc(Br)c(F)c2)c(F)c(N)c1Cl', '95 to 100%'),
  ('COC(=O)c1nc(-c2ccccc2F)c(F)c(N)c1Cl', '0 to 29%'),
  ('COC(=O)c1nc(-c2ccc(C(F)F)cc2)c(F)c(N)c1Cl', '85 to 94%'),
  ('C=Cc1c(C(=O)OC)nc(-c2ccc(Cl)c(F)c2)c(F)c1N', '45 to 59%'),
  ('COC(=O)c1nc(-c2ccc(C#N)cc2F)cc(N)c1Cl', '85 to 94%');

Any idea what its pest or weed control at 140 g/ha is? The compound is Nc1cc(-c2ccc(I)cc2)nc(C(=O)O)c1Cl
0 to 29%

Any idea what its pest or weed control at 140 g/ha is? The compound is COc1c(N)nc(-c2ccc(C(F)(F)F)c(F)c2F)nc1C(=O)O
95 to 100%

Any idea what its pest or weed control at 140 g/ha is? The compound is C#Cc1ccc(-c2nc(C(=O)O)c(Cl)c(N)c2F)cc1F
95 to 100%

Any idea what its pest or weed control at 140 g/ha is? The compound is COC(=O)c1nc(-c2ccc(OC(F)F)c(F)c2)c(F)c(N)c1Cl
95 to 100%

Any idea what its pest or weed control at 140 g/ha is? The compound is COC(=O)c1nc(-c2ccc(F)c(F)c2F)c(F)c(N)c1Cl
85 to 94%

====

tested on: Key Broadleaf Weed and Crop Species; assay: Post-emergent Test II herbicidal activity (Table 5); type: in vivo; settings: post-emergence, 336 h; CHEAL: lambsquarters (Chenopodium album); application rate 70 g ai/ha; 14 days after application; read-out: Visual Growth Reduction (%) 14 Days After Application, CHEAL
// values below are reported pest or weed control at 70 g/ha

Use the examples below as a reference point.
INSERT INTO results (line_notation, endpoint_value) VALUES
  ('COC(=O)c1nc(-c2ccc(C(F)(F)F)c(F)c2F)c(F)c(N)c1Cl', '95 to 100%'),
  ('COC(=O)c1nc(-c2ccc(Cl)c(F)c2)c(F)c(N)c1Cl', '95 to 100%'),
  ('COC(=O)c1nc(-c2ccc(Br)c(F)c2F)cc(N)c1Cl', '95 to 100%');

Query molecule follows.
Any idea what its pest or weed control at 70 g/ha is? The molecule is Nc1c(F)c(-c2ccc([N+](=O)[O-])cc2)nc(C(=O)O)c1Cl
60 to 74%

====

tested on: Key Grass and Sedge Weeds as well as Grass Crops; experiment: Post-emergent Test II herbicidal activity (Table 6); format: in vivo; conditions: post-emergence, 336 h, SETFA: giant foxtail (Setaria faberi), application rate 70 g ai/ha, read-out: Visual Growth Reduction (%) 14 Days After Application, SETFA
Endpoint: pest or weed control at 70 g/ha

Use the examples below as a reference point.
INSERT INTO assay_data (line_notation, endpoint_value) VALUES
  ('COC(=O)c1nc(-c2ccc(Br)c(F)c2)c(C)c(N)c1Cl', '85 to 94%'),
  ('COc1c(N)nc(-c2cc(F)c(C(F)F)cc2F)nc1C(=O)O', '0 to 29%'),
  ('C=Cc1c(N)nc(-c2ccc(C#N)cc2F)nc1C(=O)O', '0 to 29%'),
  ('COC(=O)c1nc(-c2cc(F)c(C(F)F)cc2F)cc(N)c1Cl', '45 to 59%'),
  ('Nc1cc(-c2cc(F)c(I)cc2F)nc(C(=O)O)c1Cl', '95 to 100%'),
  ('COC(=O)c1nc(-c2ccc(I)c(F)c2)c(Cl)c(N)c1Cl', '45 to 59%');

Any idea what its pest or weed control at 70 g/ha is? The compound is COC(=O)c1nc(-c2cccc(F)c2)c(F)c(N)c1Cl
0 to 29%

Any idea what its pest or weed control at 70 g/ha is? The compound is COC(=O)c1nc(-c2ccc(C(F)(F)F)c(F)c2)cc(N)c1Cl
0 to 29%

Any idea what its pest or weed control at 70 g/ha is? The compound is COC(=O)c1nc(-c2cc(F)c(C#N)cc2F)c(F)c(N)c1Cl
0 to 29%

Any idea what its pest or weed control at 70 g/ha is? The compound is C#Cc1ccc(-c2nc(C(=O)O)c(C=C)c(N)c2F)cc1
0 to 29%

Any idea what its pest or weed control at 70 g/ha is? The compound is Nc1c(Cl)c(C(=O)O)nc(-c2ccc(I)cc2)c1Cl
75 to 84%

Any idea what its pest or weed control at 70 g/ha is? The compound is COC(=O)c1nc(-c2cc(F)c(C(F)(F)F)cc2F)c(F)c(N)c1Cl
60 to 74%

Any idea what its pest or weed control at 70 g/ha is? The compound is COC(=O)c1nc(-c2cc(F)c(C)cc2F)nc(N)c1OC
0 to 29%

Any idea what its pest or weed control at 70 g/ha is? The compound is C=Cc1c(C(=O)OC)nc(-c2ccc(Br)cc2)c(F)c1N
0 to 29%

Any idea what its pest or weed control at 70 g/ha is? The compound is COc1c(N)nc(-c2ccc(I)c(F)c2)nc1C(=O)O
0 to 29%

Any idea what its pest or weed control at 70 g/ha is? The compound is C=Cc1c(N)nc(-c2ccc(F)c(F)c2F)nc1C(=O)OC
0 to 29%

Any idea what its pest or weed control at 70 g/ha is? The compound is COC(=O)c1nc(-c2cc(F)c(I)cc2F)cc(N)c1Cl
95 to 100%

Any idea what its pest or weed control at 70 g/ha is? The compound is COc1c(N)nc(-c2cc(F)c(Br)cc2F)nc1C(=O)O
60 to 74%

Any idea what its pest or weed control at 70 g/ha is? The compound is C=Cc1c(C(=O)O)nc(-c2ccc(C#N)cc2)c(F)c1N
0 to 29%

====

tested on: Key Grass and Sedge Weeds as well as Grass Crops; test: Post-emergent Test II herbicidal activity (Table 6); type: in vivo; settings: post-emergence, 336 h, DIGSA: crabgrass (Digitaria sanguinalis), 140 g ai/ha, read-out: Visual Growth Reduction (%) 14 Days After Application, DIGSA
Endpoint: pest or weed control at 140 g/ha

INSERT INTO assay_data (compound, endpoint_value) VALUES
  ('COC(=O)c1nc(-c2ccc(Br)cc2F)c(F)c(N)c1Cl [Compound 52]', '85 to 94%'),
  ('COC(=O)c1nc(-c2ccc(OC(F)F)cc2)c(F)c(N)c1Cl [Compound 85]', '30 to 44%'),
  ('COC(=O)c1nc(-c2ccc(C#N)c(F)c2F)c(F)c(N)c1Cl [Compound 160]', '0 to 29%'),
  ('COC(=O)c1nc(-c2ccc(Br)c(F)c2F)nc(N)c1OC [Compound 122]', '45 to 59%');

Any idea what its pest or weed control at 140 g/ha is? The compound is COC(=O)c1nc(-c2ccc(Cl)c(F)c2)c(F)c(N)c1Cl [Compound 216]
75 to 84%

Any idea what its pest or weed control at 140 g/ha is? The compound is COC(=O)c1nc(-c2ccc(Br)cc2)cc(N)c1Cl [Compound 67]
75 to 84%

====

tested on: Key Grass and Sedge Weeds as well as Grass Crops; test: Post-emergent Test II herbicidal activity (Table 6); type: in vivo; conditions: post-emergence, 336 h, ECHCG: barnyardgrass (Echinochloa crus-galli), application rate 70 g ai/ha, read-out: Visual Growth Reduction (%) 14 Days After Application, ECHCG
// values below are reported pest or weed control at 70 g/ha

Use the examples below as a reference point.
INSERT INTO results (line_notation, target_system, endpoint, endpoint_value) VALUES
  ('C=Cc1c(N)nc(-c2ccc(I)cc2)nc1C(=O)O', 'Key Grass and Sedge Weeds as well as Grass Crops', 'pest or weed control at 70 g/ha', '75 to 84%'),
  ('Cc1c(-c2ccc(I)c(F)c2)nc(C(=O)O)c(Cl)c1N', 'Key Grass and Sedge Weeds as well as Grass Crops', 'pest or weed control at 70 g/ha', '75 to 84%');

Any idea what its pest or weed control at 70 g/ha is? The compound is COC(=O)c1nc(-c2ccc(OC(F)F)cc2)c(C)c(N)c1Cl
0 to 29%

Any idea what its pest or weed control at 70 g/ha is? The compound is C#Cc1ccc(-c2cc(N)c(Cl)c(C(=O)OC)n2)cc1
95 to 100%

Any idea what its pest or weed control at 70 g/ha is? The compound is COC(=O)c1nc(-c2cc(F)c(I)cc2F)c(Br)c(N)c1Cl
0 to 29%

Any idea what its pest or weed control at 70 g/ha is? The compound is Cc1c(-c2ccc(I)cc2)nc(C(=O)O)c(Cl)c1N
45 to 59%

Any idea what its pest or weed control at 70 g/ha is? The compound is C=Cc1c(C(=O)OC)nc(-c2ccc(C(F)(F)F)c(F)c2)c(F)c1N
0 to 29%

Any idea what its pest or weed control at 70 g/ha is? The compound is Nc1cc(-c2cc(F)c(OC(F)F)cc2F)nc(C(=O)O)c1Cl
60 to 74%

Any idea what its pest or weed control at 70 g/ha is? The compound is Cc1c(-c2ccc(Br)cc2)nc(C(=O)O)c(Cl)c1N
0 to 29%
